# System: NCI-H226
# EXPERIMENTAL_PROTOCOL: NCI tumour cell line growth inhibition, 48 h
The source made the active and inactive calls. No stated cut-off is given here; in the data, active = GI50 up to about 1.1 µM and inactive = higher.
Can you answer with just one of these options? true (1) (active), false (0) (inactive)

Query: Write down the call the test reported for this compound. Item: Cc1c(C#N)c2nnn(-c3ccc(Cl)cc3)c(=O)n2c1-c1ccccc1
Response: true (1)

Query: Write down the call the test reported for this compound. Item: CC(C)C1OC(=O)C=C1Sc1ccccc1 (stereo unspecified)
Response: false (0)

Query: Write down the call the test reported for this compound. Item: Oc1ccc(N=C2CCC(=C(c3ccccc3)c3ccc(Nc4ccc(O)cc4)cc3)CC2)cc1
Response: false (0)

Query: Write down the call the test reported for this compound. Item: CC(=O)Oc1c(OC(C)C)cc(=O)n2ccsc12
Response: false (0)

Query: Write down the call the test reported for this compound. Item: COc1cccc(C2=NC(C(C)C)CO2)c1 (stereo unspecified)
Response: false (0)

Query: Write down the call the test reported for this compound. Item: O=C1NN=C(O)C2C3c4ccccc4C(c4ccccc43)C12 (stereo unspecified)
Response: false (0)

###

Provide the recorded GI50 for the entries that follow.
# System: NCI/ADR-RES
# EXPERIMENTAL_PROTOCOL: NCI tumour cell line growth inhibition, 48 h
Calls of active or inactive are those of the source. No stated cut-off is given here; in the data, active = GI50 up to about 1.1 µM and inactive = higher.

Query: Return the recorded GI50 value; entry: COC1CC(C)(N)C(O)C(C)O1 (stereo not given)
Response: > 100 µM (inactive)

Query: Return the recorded GI50 value; entry: CN1CCC/C1=N\C#N
Response: > 100 µM (inactive)

Query: Return the recorded GI50 value; entry: CCc1c(O)cc(=O)oc1-c1ccc(OC)c(OC)c1
Response: > 100 µM (inactive)

Query: Return the recorded GI50 value; entry: CC1(C)CC(=O)C(=CNC(=O)c2ccncc2)C(=O)C1
Response: > 100 µM (inactive)

Query: Return the recorded GI50 value; entry: O=C(/C=C/c1csc(-c2ccccc2)n1)NCc1ccc(C(=O)NCc2ccccc2)cc1
Response: 50.8 µM (inactive)

Query: Return the recorded GI50 value; entry: COc1ccc2c3c([nH]c2c1)[C@H]1C[C@H]2[C@H](C[C@@H](O)[C@H](OC)[C@H]2C(=O)O)CN1CC3
Response: > 100 µM (inactive)

Query: Return the recorded GI50 value; entry: CC(C)[Si]1(C(C)C)OCC2OC(N3C(=O)NC(=O)C[C@@H]3C(O)c3ccccc3)CC2O[Si](C(C)C)(C(C)C)O1 (stereo not given in full)
Response: 5.32 µM (inactive)

Query: Return the recorded GI50 value; entry: OC/C=C/[C@H](OCc1ccccc1)[C@H](/C=C/CO)OCc1ccccc1
Response: 32.4 µM (inactive)

Query: Return the recorded GI50 value; entry: O=C1O/C(=C\C=C\CO)C=C1/C=C/CO [LISSOCLINOLIDE]
Response: 33.3 µM (inactive)

Query: Return the recorded GI50 value; entry: O=C1c2ccccc2-c2nnc(-c3ccc(Cl)cc3)cc21
Response: > 10 µM (inactive)

###

# Tested on: NCI-H460
# EXPERIMENTAL_PROTOCOL: NCI tumour cell line growth inhibition, 48 h
Activity calls are given as the source filed them. Rule as the data show it: active = GI50 up to about 1.1 µM and inactive = higher.
Provide the recorded GI50 for the entries that follow.

Query: Return the recorded GI50 value; entry: CC(C)/C=C1\CCC(CN2CCOCC2)C1=O (stereo not drawn)
Response: 28.1 µM (inactive)

Query: Return the recorded GI50 value; entry: Cc1ccc(-c2c(C#N)c(O)n(NS(=O)(=O)c3ccccc3)c(=O)c2C#N)cc1
Response: > 100 µM (inactive)

Query: Return the recorded GI50 value; entry: Cc1cc(O)cc(O)c1/N=N/c1ccc([N+](=O)[O-])cc1
Response: 19.4 µM (inactive)

Query: Return the recorded GI50 value; entry: O=C1c2ccc3cc(CCl)cc(O)c3c2C(=O)c2cccc(O)c21
Response: 3.3 µM (inactive)

Query: Return the recorded GI50 value; entry: O=C(OCc1ccccc1)C(Cc1ccc(OCc2ccccc2)cn1)NC(=O)C(F)(F)F (stereo not drawn)
Response: > 100 µM (inactive)

Query: Return the recorded GI50 value; entry: ON[C@H]1C[C@@H](n2cnc3c(NC4CC4)ncnc32)[C@H](O)[C@@H]1O
Response: > 100 µM (inactive)

Query: Return the recorded GI50 value; entry: OCCNCNc1nc(NCNCCO)nc(N(CNCCO)CNCCO)n1
Response: 21.9 µM (inactive)

Query: Return the recorded GI50 value; entry: CN(CC(=O)O)Cc1oc(CO)cc(=O)c1O
Response: > 100 µM (inactive)

Query: Return the recorded GI50 value; entry: COC(=O)/C(C)=C/[N+](=O)[O-]
Response: 22.2 µM (inactive)

Query: Return the recorded GI50 value; entry: CC(C)(C)c1ccc(OCCOCCOc2ccc(C(C)(C)C)cc2S(N)(=O)=O)c(S(N)(=O)=O)c1
Response: 34.9 µM (inactive)

Query: Return the recorded GI50 value; entry: CCC/C=C/c1cc2c(cc1O)CC[C@@H]1[C@@H]2CC[C@]2(C)[C@@H](O)CC[C@@H]12
Response: 17.4 µM (inactive)

Query: Return the recorded GI50 value; entry: CC(=O)OC1COC(N2C(=O)C(=O)c3c(C)cc(Cl)nc32)C(OC(C)=O)C1OC(C)=O (stereo not drawn)
Response: > 100 µM (inactive)

Query: Return the recorded GI50 value; entry: O=C(C1OC1c1ccc([N+](=O)[O-])cc1)C12CC3CC(CC(C3)C1)C2 (stereo not drawn)
Response: 13.6 µM (inactive)

Query: Return the recorded GI50 value; entry: C=C1CC(Cn2cc(C)c(=O)[nH]c2=O)(c2ccc(-c3ccccc3)cc2)OC1=O (stereo not drawn)
Response: 6.95 µM (inactive)

Query: Return the recorded GI50 value; entry: CCc1c(O)cc(=O)oc1-c1ccc(OC)c(OC)c1
Response: > 100 µM (inactive)

Query: Return the recorded GI50 value; entry: O=C(CCC(=O)Nc1cccc(Cl)c1)CC(=O)c1ccc(Cl)cc1
Response: > 100 µM (inactive)

Query: Return the recorded GI50 value; entry: COc1cc([C@@H]2OC[C@@H]3C(c4cc(OC)c5c(c4)OCO5)OC[C@@H]32)cc(OC)c1OC (stereo partly drawn)
Response: > 100 µM (inactive)

Query: Return the recorded GI50 value; entry: COc1ccc(/C=C/c2cc(OC)c(O[Si](C)(C)C(C)(C)C)c(OC)c2)cc1
Response: 42.2 µM (inactive)
